- measured on: furin, P09958
- Sequence (P09958 whole entry): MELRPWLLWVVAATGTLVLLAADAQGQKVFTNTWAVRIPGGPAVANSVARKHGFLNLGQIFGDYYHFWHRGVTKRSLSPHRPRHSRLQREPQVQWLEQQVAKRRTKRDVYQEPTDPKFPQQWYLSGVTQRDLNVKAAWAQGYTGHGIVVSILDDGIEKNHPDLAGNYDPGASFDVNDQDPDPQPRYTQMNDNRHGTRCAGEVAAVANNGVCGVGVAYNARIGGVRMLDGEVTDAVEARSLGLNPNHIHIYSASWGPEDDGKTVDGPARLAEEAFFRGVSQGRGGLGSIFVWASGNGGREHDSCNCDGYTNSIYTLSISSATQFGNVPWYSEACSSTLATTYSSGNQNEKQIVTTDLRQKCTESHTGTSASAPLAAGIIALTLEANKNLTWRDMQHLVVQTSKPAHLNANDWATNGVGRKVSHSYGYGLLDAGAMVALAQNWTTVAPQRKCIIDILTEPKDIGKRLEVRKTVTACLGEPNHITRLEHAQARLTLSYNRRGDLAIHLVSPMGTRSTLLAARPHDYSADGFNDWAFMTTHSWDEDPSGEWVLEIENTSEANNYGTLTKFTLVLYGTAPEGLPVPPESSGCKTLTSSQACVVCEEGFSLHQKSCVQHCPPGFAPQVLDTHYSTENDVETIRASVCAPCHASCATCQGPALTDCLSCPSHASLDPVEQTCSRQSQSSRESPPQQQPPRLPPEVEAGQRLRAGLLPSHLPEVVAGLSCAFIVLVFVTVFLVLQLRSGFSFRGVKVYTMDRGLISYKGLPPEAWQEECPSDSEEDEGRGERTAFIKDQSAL
- test description: furin cleavage Z-score vs untreated control; higher = more cleavage, active = 3.5 or more, inactive = 1 or less, 8 variable residues between constant flanks;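 note: purified furin at 1:10 enzyme:substrate in 50 mM HEPES pH 7.5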
- condition context: 7.5 min
The other results are listed elsewhere or left out. The true hit rate is not given.
# Lookup of reported furin cleavage Z-score keyed by entry

>  <sequence input>
CAVHKRSAERAGNASASA [FS-2854]

>  <furin cleavage Z-score>
2.95

$$$$
>  <sequence input>
CAADGGCSGGAGNASASA [HC811]

>  <furin cleavage Z-score>
-1.33

$$$$
>  <sequence input>
CAELIEANLLAGNASASA [HC1273]

>  <furin cleavage Z-score>
-1.11

$$$$
>  <sequence input>
CAKYLFNWAVAGNASASA [HC1632]

>  <furin cleavage Z-score>
-0.0484

$$$$
>  <sequence input>
CARKTRFIIHAGNASASA [FS-2426]

>  <furin cleavage Z-score>
0.0934

$$$$
>  <sequence input>
CATRCFDSTVAGNASASA [HC1481]

>  <furin cleavage Z-score>
1.01

$$$$
>  <sequence input>
CASTWCSAHLAGNASASA [HC2508]

>  <furin cleavage Z-score>
0.983

$$$$
>  <sequence input>
CAVVLTESTLAGNASASA [HC1327]

>  <furin cleavage Z-score>
0.79

$$$$
>  <sequence input>
CAVVCESMSYAGNASASA [HC93]

>  <furin cleavage Z-score>
1.27

$$$$
>  <sequence input>
CAGLSTLPGNAGNASASA [HC1049]

>  <furin cleavage Z-score>
0.578

$$$$
>  <sequence input>
CARKRRNTIHAGNASASA [FS-2567]

>  <furin cleavage Z-score>
9.29

$$$$
>  <sequence input>
CADSEVVTSTAGNASASA [HC2297]

>  <furin cleavage Z-score>
-0.913

$$$$
>  <sequence input>
CASTQCSAHLAGNASASA [HC2522]

>  <furin cleavage Z-score>
1.38

$$$$
>  <sequence input>
CASCLWMMLLAGNASASA [HC527]

>  <furin cleavage Z-score>
0.0621

$$$$
>  <sequence input>
CAEPVVCCSMAGNASASA [HC2139]

>  <furin cleavage Z-score>
0.036

$$$$
>  <sequence input>
CAEYVEIRQVAGNASASA [HC1205]

>  <furin cleavage Z-score>
-0.199

$$$$
>  <sequence input>
CAHNSRKKREAGNASASA [FS-1340]

>  <furin cleavage Z-score>
11.8

$$$$
>  <sequence input>
CAMLECSQHLAGNASASA [HC1685]

>  <furin cleavage Z-score>
-0.00687

$$$$
>  <sequence input>
CAIRTEEAIYAGNASASA [HC1487]

>  <furin cleavage Z-score>
-0.614

$$$$
>  <sequence input>
CALMTHFFSVAGNASASA [HC1583]

>  <furin cleavage Z-score>
-2.19

$$$$
>  <sequence input>
CAMGSSYGFQAGNASASA [HC1464]

>  <furin cleavage Z-score>
0.332

$$$$
>  <sequence input>
CAIASWAIKWAGNASASA [HC515]

>  <furin cleavage Z-score>
-0.183

$$$$
>  <sequence input>
CARKRRETSQAGNASASA [FS-2347]

>  <furin cleavage Z-score>
13.9

$$$$
>  <sequence input>
CALKVPYFVRAGNASASA [HC614]

>  <furin cleavage Z-score>
-0.584

$$$$
